Data origin: ChEMBL document CHEMBL1127006

TEST_SYSTEM: 3-oxo-5-alpha-steroid 4-dehydrogenase 1 (Homo sapiens, UniProt P18405)
Sequence (P18405 whole entry): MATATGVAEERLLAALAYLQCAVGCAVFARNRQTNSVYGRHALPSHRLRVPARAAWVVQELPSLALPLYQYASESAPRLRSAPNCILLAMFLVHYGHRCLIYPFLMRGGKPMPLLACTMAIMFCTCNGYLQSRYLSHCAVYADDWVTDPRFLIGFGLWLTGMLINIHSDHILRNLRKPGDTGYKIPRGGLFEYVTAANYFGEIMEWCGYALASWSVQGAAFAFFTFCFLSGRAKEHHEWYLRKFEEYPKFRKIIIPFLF
PROCEDURE_SUMMARY: In vitro inhibitory concentration required to inhibit Steroid 5-alpha-reductase type 1 in cultured Hs 68 human foreskin fibroblast cells
Format: cell-based
CONDITION_SET: read-out: Log 1/IC50 (converted)
Give measured IC50 for each item. Keep answers brief.
The answer is to be given in nM; state only the numeric part.

Form: compound = Cc1ccc2c(c1)CCC1=C2CCC(=O)N1C ; IC50 = 32.4

Form: compound = CN1C(=O)CCC2=C1CCc1cc(Cl)ccc12 ; IC50 = 174

Form: compound = CN1C(=O)CCC2(C)c3ccccc3CCC12 (stereo not drawn) ; IC50 = 1000

====

TEST_SYSTEM: 3-oxo-5-alpha-steroid 4-dehydrogenase 1 (Homo sapiens)
PROCEDURE_SUMMARY: In vitro inhibitory concentration required to inhibit Steroid 5-alpha-reductase type 1 in cultured Hs 68 human foreskin fibroblast cells
Format: cell-based
CONDITION_SET: read-out: Log 1/IC50 (converted)
Give measured log10 of IC50 for each item. Keep answers brief.
Scale type: logarithmic (base 10). Underlying IC50 unit: nM.

Form: compound = CN1C(=O)CCC2c3ccccc3CCC21 (stereo not drawn) ; log10 of IC50 = 2.75

Form: compound = CN1C(=O)CCC2c3ccc(Cl)cc3CCC21 (stereo not drawn) ; log10 of IC50 = 0.90

Form: compound = COc1ccc2c(c1)CCC1C2CCC(=O)N1C (stereo not drawn) ; log10 of IC50 = 2.06

Form: compound = CN1C(=O)CCC2(C)c3ccc(Cl)cc3CCC12 (stereo not drawn) ; log10 of IC50 = 1.51

Form: compound = CN1C(=O)CCC2=C1CCc1cc(F)ccc12 ; log10 of IC50 = 2.18

Form: compound = CN1C(=O)CCC2(C)c3ccc(F)cc3CCC12 (stereo not drawn) ; log10 of IC50 = 2.06

Form: compound = CN1C(=O)CCC2=C1CCc1cc(Br)ccc12 ; log10 of IC50 = 1.78

Form: compound = CN1C(=O)CCC2c3ccc(F)cc3CCC21 (stereo not drawn) ; log10 of IC50 = 1.54

Form: compound = CN1C(=O)CCC2c3ccc(I)cc3CCC21 (stereo not drawn) ; log10 of IC50 = 1.90

Form: compound = Cc1ccc2c(c1)CCC1C2CCC(=O)N1C (stereo not drawn) ; log10 of IC50 = 1.51

Form: compound = CN1C(=O)CCC2c3ccc(Br)cc3CCC21 (stereo not drawn) ; log10 of IC50 = 1.54

Form: compound = CN1C(=O)CCC2=C1CCc1ccccc12 ; log10 of IC50 = 3.00

Form: compound = CN1C(=O)CCC2c3ccc(C(F)(F)F)cc3CCC21 (stereo not drawn) ; log10 of IC50 = 1.95
